Provenance of the data: patent US9957297B2

# TARGET_UNDER_TEST: T1, Formyl-Peptide Receptor 1 (UniProt P21462 1-350, limits assumed)
# T1 sequence (looked up): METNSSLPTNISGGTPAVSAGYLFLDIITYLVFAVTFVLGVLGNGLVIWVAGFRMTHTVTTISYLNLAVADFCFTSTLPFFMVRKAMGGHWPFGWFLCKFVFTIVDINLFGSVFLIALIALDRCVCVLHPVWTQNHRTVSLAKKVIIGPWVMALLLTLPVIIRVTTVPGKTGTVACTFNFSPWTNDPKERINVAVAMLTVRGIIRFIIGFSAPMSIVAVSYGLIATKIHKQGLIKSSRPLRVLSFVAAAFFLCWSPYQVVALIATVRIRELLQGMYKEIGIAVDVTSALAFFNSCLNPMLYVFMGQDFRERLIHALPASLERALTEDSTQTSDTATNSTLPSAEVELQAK
# TEST_DESCRIPTION: cell-based or functional assay
Bridges are numbered along the chain shown (N, C = ends). [ ]: non-standard residue; d: D form.
EXPERIMENTAL_ENDPOINT: β-Arrestin IC50 (nM)
Response body: numeric value in nM, unit text excluded.

// known answers, use as guide
[
  {
    "BINDER": "cyclo(YHACWG[dP]WTICYQK[dP]A) (disulfide 4-11; SMILES CC[C@H](C)[C@@H]1NC(=O)[C@H]([C@@H](C)O)NC(=O)[C@H](Cc2c[nH]c3ccccc23)NC(=O)[C@H]2CCCN2C(=O)CNC(=O)[C@H](Cc2c[nH]c3ccccc23)NC(=O)[C@@H]2CSSC[C@H](NC1=O)C(=O)N[C@@H](Cc1ccc(O)cc1)C(=O)N[C@@H](CCC(N)=O)C(=O)N[C@@H](CCCCN)C(=O)N1CCC[C@@H]1C(=O)N[C@@H](C)C(=O)N[C@@H](Cc1ccc(O)cc1)C(=O)N[C@@H](Cc1c[nH]cn1)C(=O)N[C@@H](C)C(=O)N2) [cyclo(-Tyr-His-Ala-Cys-Trp-Gly-^DPro-Trp-Thr-Ile-Cys-Tyr-Gln-Lys-^DPro-Ala-)]",
    "DISPLAY_UNIT": "nM",
    "NUMERIC_VALUE": 188
  },
  {
    "BINDER": "cyclo(YHKCHG[dP]WTICYEH[dP]P) (disulfide 4-11; SMILES CC[C@H](C)[C@@H]1NC(=O)[C@H]([C@@H](C)O)NC(=O)[C@H](Cc2c[nH]c3ccccc23)NC(=O)[C@H]2CCCN2C(=O)CNC(=O)[C@H](Cc2c[nH]cn2)NC(=O)[C@@H]2CSSC[C@H](NC1=O)C(=O)N[C@@H](Cc1ccc(O)cc1)C(=O)N[C@@H](CCC(=O)O)C(=O)N[C@@H](Cc1c[nH]cn1)C(=O)N1CCC[C@@H]1C(=O)N1CCC[C@H]1C(=O)N[C@@H](Cc1ccc(O)cc1)C(=O)N[C@@H](Cc1c[nH]cn1)C(=O)N[C@@H](CCCCN)C(=O)N2) [cyclo(-Tyr-His-Lys-Cys-His-Gly-^DPro-Trp-Thr-Ile-Cys-Tyr-Glu-His-^DPro-Pro-)]",
    "DISPLAY_UNIT": "nM",
    "NUMERIC_VALUE": 73
  },
  {
    "BINDER": "cyclo(YHKCHG[dP]WTICYEW[dP]P) (disulfide 4-11; SMILES CC[C@H](C)[C@@H]1NC(=O)[C@H]([C@@H](C)O)NC(=O)[C@H](Cc2c[nH]c3ccccc23)NC(=O)[C@H]2CCCN2C(=O)CNC(=O)[C@H](Cc2c[nH]cn2)NC(=O)[C@@H]2CSSC[C@H](NC1=O)C(=O)N[C@@H](Cc1ccc(O)cc1)C(=O)N[C@@H](CCC(=O)O)C(=O)N[C@@H](Cc1c[nH]c3ccccc13)C(=O)N1CCC[C@@H]1C(=O)N1CCC[C@H]1C(=O)N[C@@H](Cc1ccc(O)cc1)C(=O)N[C@@H](Cc1c[nH]cn1)C(=O)N[C@@H](CCCCN)C(=O)N2) [cyclo(-Tyr-His-Lys-Cys-His-Gly-^DPro-Trp-Thr-Ile-Cys-Tyr-Glu-Trp-^DPro-Pro-)]",
    "DISPLAY_UNIT": "nM",
    "NUMERIC_VALUE": 16
  }
]

QUERY: Fill in the blank: the reported β-Arrestin IC50 of cyclo(YHKCHG[dA]WTICYEK[dP]E) (disulfide 4-11; SMILES CC[C@H](C)[C@@H]1NC(=O)[C@H]([C@@H](C)O)NC(=O)[C@H](Cc2c[nH]c3ccccc23)NC(=O)[C@@H](C)NC(=O)CNC(=O)[C@H](Cc2c[nH]cn2)NC(=O)[C@@H]2CSSC[C@H](NC1=O)C(=O)N[C@@H](Cc1ccc(O)cc1)C(=O)N[C@@H](CCC(=O)O)C(=O)N[C@@H](CCCCN)C(=O)N1CCC[C@@H]1C(=O)N[C@@H](CCC(=O)O)C(=O)N[C@@H](Cc1ccc(O)cc1)C(=O)N[C@@H](Cc1c[nH]cn1)C(=O)N[C@@H](CCCCN)C(=O)N2) [cyclo(-Tyr-His-Lys-Cys-His-Gly-^DAla-Trp-Thr-Ile-Cys-Tyr-Glu-Lys-^DPro-Glu-)] is ____.
RESULT: 77
